system.under.test: Brd2 tandem with no mutation (WT-WT) (Homo sapiens)
Construct: containing the first and the second bromodomain, as well as the natural linker between them; His6; SUMO (cleaved yes)
Sequence (P25440 71-455 limits assumed, change not shown): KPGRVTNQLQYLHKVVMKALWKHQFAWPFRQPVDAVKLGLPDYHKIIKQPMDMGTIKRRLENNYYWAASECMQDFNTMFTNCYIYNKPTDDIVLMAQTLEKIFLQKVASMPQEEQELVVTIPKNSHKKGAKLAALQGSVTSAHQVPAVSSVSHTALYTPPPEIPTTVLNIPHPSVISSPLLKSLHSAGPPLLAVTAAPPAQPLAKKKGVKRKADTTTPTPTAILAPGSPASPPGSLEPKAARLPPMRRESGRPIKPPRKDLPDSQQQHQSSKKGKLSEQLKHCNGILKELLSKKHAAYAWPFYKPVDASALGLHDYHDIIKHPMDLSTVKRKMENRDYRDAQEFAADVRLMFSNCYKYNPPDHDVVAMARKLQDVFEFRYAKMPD
run.description: ITC of compound into Brd2 tandem construct

{"compound": "CC[C@@H](C(=O)OC)[C@@H]1N=C(c2ccc(Cl)cc2)c2cc(OC)ccc2-n2c(C)nnc21 (racemic)", "Kd": "~15.8 µM"}

====

system.under.test: Brd2(2)*(Leu383-Ala) (Homo sapiens, UniProt P25440, L383A)
Sequence (P25440 344-453 L383A limits assumed): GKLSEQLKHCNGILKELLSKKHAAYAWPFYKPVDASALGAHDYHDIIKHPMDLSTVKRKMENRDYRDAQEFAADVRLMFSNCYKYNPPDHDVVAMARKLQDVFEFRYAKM
run.description: ITC reverse titration of protein into compound
Assay type: binding
Set-up: Plasmids of the eight single BET bromodomain constructs Brd2(1), Brd2(2), Brd3(1), Brd3(2), Brd4(1), Brd4(2), Brdt(1) and Brdt(2); His6 (N); made in house; host or cells: E. coli BL21(DE3)
condition.set: Kd Brd2(2)* (Leu383-Ala), ITC 25° C.
reported.endpoint: Kd

{"compound": "CC[C@@H](C(=O)OC)[C@@H]1N=C(c2ccc(Cl)cc2)c2cc(OC)ccc2-n2c(C)nnc21 (racemic)", "system.under.test": "Brd2(2)*(Leu383-Ala) (Homo sapiens, UniProt P25440, L383A)", "value.observed": "0.0217 µM"}
